Collected IC50 values appear next to each entry.
Target: EGFR (human)
Conditions: hct-116
Metric name: IC50 (µM)

compound=O=C(NCCc1ccc(F)cc1)c1cc(NCc2cc(O)ccc2O)ccc1O metric_name=IC50 measured_result=9.2
compound=CCCCCCCCCCCCNC(=O)c1cc(NCc2cc(O)ccc2O)ccc1O metric_name=IC50 measured_result=2.1
compound=O=C(NCCc1ccc(Br)cc1)c1cc(NCc2cc(O)ccc2O)ccc1O metric_name=IC50 measured_result=7.6
compound=CCCCCCNC(=O)c1cc(NCc2cc(O)ccc2O)ccc1O metric_name=IC50 measured_result=17
compound=O=C(NCCc1ccccc1)c1cc(NCc2cc(O)ccc2O)ccc1O metric_name=IC50 measured_result=18
compound=O=C(NCc1ccccc1)c1ccc(NCc2cc(O)ccc2O)cc1 metric_name=IC50 measured_result=10
compound=O=C(NCCc1ccccc1)c1cccc(NCc2cc(O)ccc2O)c1 metric_name=IC50 measured_result=16
compound=O=C(NCCc1ccccc1)c1ccc(NCc2cc(O)ccc2O)cc1 metric_name=IC50 measured_result=7.4
compound=O=C(NCCc1ccc(Cl)cc1)c1cc(NCc2cc(O)ccc2O)ccc1O metric_name=IC50 measured_result=15
compound=O=C(NCCCc1ccccc1)c1ccc(NCc2cc(O)ccc2O)cc1 metric_name=IC50 measured_result=6.4
compound=O=C(NCCc1ccccn1)c1cc(NCc2cc(O)ccc2O)ccc1O metric_name=IC50 measured_result=17
compound=O=C(NCCCc1ccccc1)c1cc(NCc2cc(O)ccc2O)ccc1O metric_name=IC50 measured_result=24
compound="O=C(NC1CCc2ccccc2C1)c1cc(NCc2cc(O)ccc2O)ccc1O (stereo not given)" metric_name=IC50 measured_result=16
compound=COc1ccc(CCNC(=O)c2cc(NCc3cc(O)ccc3O)ccc2O)cc1 metric_name=IC50 measured_result=23
compound=O=C(NCCN1CCOCC1)c1cc(NCc2cc(O)ccc2O)ccc1O metric_name=IC50 measured_result=20
